assay: protein stability index of a GFP-peptide fusion (GPS, HEK-293T) (PSI 1-6); higher = more stable; settings: treatment: MLN4924 1 uM, 8 h; c terminus: a fixed tail appended;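 also: 24-mer peptide tiles fused after GFP, lentivirally expressed, FACS-sorted into six equal bins by GFP/DsRed ratio, decoded by Illumina sequencing, PSI is the read-weighted mean bin number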
Record TRUE whenever protein stability index is at 3 or higher; record FALSE when lower.

chain_sequence="FHKQQWFNCIRAAIAPFQSAGSPP [NET1]" class=FALSE
chain_sequence="AVQAQAGWLQHDFGHLSVFSTSKW [FADS1]" class=FALSE
chain_sequence="ITIEPGTSYRLQGLKPNSLYYFRL [PTPRD]" class=FALSE

Record CHEEVYAGSHQYPGRGVYLLKFDN [ACBD3] ; criterion: protein stability index no lower than 3. Met?
FALSE

----------
assay: protein stability index of a GFP-peptide fusion (GPS, HEK-293T) (PSI 1-6); higher = more stable; details: treatment: DMSO; c terminus: a fixed tail appended
READOUT KIND: protein stability index
Give a plain numeric answer without units written out.

Study these solved cases before continuing.
chain_sequence="MLQSFINYCLLFLIYTVMLAFRSG [SLC35F2]" value_observed=2.83
chain_sequence="TLSNPQMSLEGTEKASWLGEQPQF [ELF3]" value_observed=4.26
chain_sequence="SSIVWRFVEDSFDPNINPTIGASF [RAB22A]" value_observed=2.31
chain_sequence="KSSVYRRYNDFVVFQEMLLHKFPY [SNX8]" value_observed=2.45
chain_sequence="LEAEIATYRRLLEDGEDFNLGDAL [KRT18]" value_observed=4.41
chain_sequence="IADLFVADQRSRMLSIFYFAIPVG [SPNS1]" value_observed=3.08
chain_sequence="TMDGEGTLFQTESPQSGSILTEET [PBXIP1]" value_observed=5.44
chain_sequence="LGNGNDKKEMNKSDLNTNNLLFKP [KMT2E]" value_observed=4.65

I have this sequence here, KHLARQLEEKDRVLKKQDAFYKEQ [CHCHD3] , and I need its recorded protein stability index.
4.33

Then this sequence: DQFSALGLDPCLLEDELDKSVQGT [SLC6A17]
5.18

Then this sequence: RSERKKWIHCFEGVTAIIFCVALS [GNAI1]
3.21

Then this sequence: TQSWSSQSSFNSLQRVPSYDSFDS [ETS1]
4.06

Then this sequence: PAPTATVPAPQPPVTKPLFPSAGQ [ZNF207]
4.82

----------
test: protein stability index of a GFP-peptide fusion (GPS, HEK-293T) (PSI 1-6); higher = more stable; conditions: treatment: MLN4924 1 uM, 8 h; c terminus: a fixed tail appended
Record met whenever protein stability index is at 4 or higher; record not met when lower.

Worked examples, 3 sequences total:
chain_sequence="NNDDDEDEDDEDEDEDEDEDEDED [TAF7L]" class=met
chain_sequence="LIVVTQSHLVIHNLFEGMIWFIVP [CDS2]" class="not met"
chain_sequence="PSSSSIHNGDMEKILLDAQHESGQ [BNIP3L]" class=met

Record VSGDLTKEDIDLIDILWRQDIDLG [NFE2L1] ; criterion: protein stability index no lower than 4. Met?
not met

Then this sequence: TIRLRPRQVLCEKCKSTLSPPEAS [PWWP2B]
not met

Then this sequence: QRAQAEVLQSVRELSRSRKLYGQR [FCHSD1]
not met

Then this sequence: YTFGSNQHGQLGTNTRRGSRAPCK [NEK8]
met

Then this sequence: VISLLNEPNTFSPANVDASVMFRK [UBE2R2]
not met

Then this sequence: QEAMFNMATLNRTAAGLMHTFNAH [SEPHS2]
not met

Then this sequence: GGFPIIRDQIFRYVHDPECVATTG [FBXO3]
not met

Then this sequence: PAPERTMAGLSKEPNTLRAPRVRT [VENTX]
met

Then this sequence: IRISMSHEEEPLGTAGPLALARDL [GMPPB]
not met

Then this sequence: AFEPEALGNLVEGMDFHRFYFENA [CAMK2D]
not met
